B1: EHEE_rd4_0726 (parent)
chain: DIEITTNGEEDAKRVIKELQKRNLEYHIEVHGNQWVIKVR

- Variants of: B1
- METHOD NOTES: folding stability dG (cDNA display proteolysis); higher = more stable
- CONDITION: PBS, room temperature
QUANTITY: folding stability dG (kcal/mol)
Hi! Could you send only the number? It should be in kcal/mol, unit omitted.

Some entries whose results are on file:
VARIANT IDENTIFIER | folding stability dG (kcal/mol)
E3M | 2.74
I2S | 1.65
D1H | 2.48

Moving on to another variant below.
Recorded result, R40G , folding stability dG: 1.81
